test.target: human full-length MKNK1 (Homo sapiens, UniProt Q9BUB5, T385D)
Construct: GST (N); purchased Carna Biosciences 02-145; host or cells: insect cells (baculovirus expression system)
Sequence (Q9BUB5 1-424 isoform Q9BUB5-2 T344D): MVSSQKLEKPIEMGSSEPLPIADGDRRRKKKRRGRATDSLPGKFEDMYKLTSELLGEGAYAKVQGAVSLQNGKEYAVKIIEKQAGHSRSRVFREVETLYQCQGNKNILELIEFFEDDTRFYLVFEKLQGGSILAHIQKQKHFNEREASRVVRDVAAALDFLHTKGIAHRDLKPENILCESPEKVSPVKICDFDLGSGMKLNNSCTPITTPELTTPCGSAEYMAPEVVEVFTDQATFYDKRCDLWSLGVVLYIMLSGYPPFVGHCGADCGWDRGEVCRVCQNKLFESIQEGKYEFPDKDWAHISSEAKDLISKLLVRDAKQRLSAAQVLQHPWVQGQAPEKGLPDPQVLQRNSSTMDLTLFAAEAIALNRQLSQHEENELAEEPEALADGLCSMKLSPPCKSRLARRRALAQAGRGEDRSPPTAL
measurement.notes: MKNK1 kinase high ATP assay (TR-FRET)
Format: biochemical
test.parameters: 2 mM ATP, after preincubation with MKNK1; read-out: MKNK1 IC50 (MKNK1 high ATP)
Category key, based on recorded IC50: L: < 2 nM; M: ≥ 2 nM and < 10 nM; H: ≥ 10 nM

compound	class.name
COc1cc2[nH]ncc2cc1Nc1ncnc2sc3c(c12)CCC(C(=O)N1CC2CC1CO2)C3 (mixture of isomers)	M
CC(C)Oc1cc2[nH]ncc2cc1Nc1ncnc2sc3c(c12)CCC(C(=O)N1CCN(C)CC1)C3 (racemic)	L
Cc1n[nH]c2ccc(Nc3ncnc4sc5c(c34)CCC(C(=O)O)C5)cc12 (racemic)	H
CCOc1cc2[nH]ncc2cc1Nc1ncnc2sc3c(c12)CCC(C(=O)N1CCOCC1)C3 (racemic)	L
COc1cc2[nH]ncc2cc1Nc1ncnc2sc3c(c12)CCC(C(=O)N1C[C@H](O)[C@@H](O)C1)C3 (mixture of isomers)	L
CC(C)CNC(=O)C1CCc2c(sc3ncnc(Nc4ccc5[nH]ncc5c4)c23)C1 (centres unmarked)	M
CCOc1cc2[nH]ncc2cc1Nc1ncnc2sc3c(c12)CCC(C(=O)N1CC2(COC2)C1)C3 (racemic)	L
CCOc1cc2[nH]ncc2cc1Nc1ncnc2sc3c(c12)CCC(C(=O)N(C)C(C)(C)C)C3 (racemic)	L
CN(C(=O)C1CCc2c(sc3ncnc(Nc4ccc5[nH]ncc5c4)c23)C1)c1ccccc1 (racemic)	M
N#Cc1ccc(NC(=O)C2CCc3c(sc4ncnc(Nc5ccc6[nH]ncc6c5)c34)C2)cc1 (racemic)	H
O=C(NCCN1CCCC1)C1CCc2c(sc3ncnc(Nc4ccc5[nH]ncc5c4)c23)C1 (racemic)	M
CNC(=O)CN1CCN(C(=O)C2CCc3c(sc4ncnc(Nc5ccc6[nH]ncc6c5)c34)C2)CC1 (racemic)	H
COCCCN1CCN(C(=O)C2CCc3c(sc4ncnc(Nc5ccc6[nH]ncc6c5)c34)C2)CC1 (racemic)	H

----------
Entries and their measured pIC50 follow.
test.target: human full-length MKNK1 (Homo sapiens, UniProt Q9BUB5, T385D)
Construct: GST (N); purchased Carna Biosciences 02-145; host or cells: insect cells (baculovirus expression system)
measurement.notes: MKNK1 kinase high ATP assay (TR-FRET)
Type: biochemical
test.parameters: 2 mM ATP, after preincubation with MKNK1; read-out: MKNK1 IC50 (MKNK1 high ATP)
pIC50: −log10 of the molar value.

molecule	pIC50
O=C(NCCOc1ccccc1)C1CCc2c(sc3ncnc(Nc4ccc5[nH]ncc5c4)c23)C1 (centres unmarked)	8.40
O=C(C1CCc2c(sc3ncnc(Nc4ccc5[nH]ncc5c4)c23)C1)N1CCS(=O)(=O)CC1 (racemic)	7.65
COCC1CCCN1C(=O)C1CCc2c(sc3ncnc(Nc4ccc5[nH]ncc5c4)c23)C1 (racemic)	8.14
CN(C)C1CCN(C(=O)C2CCc3c(sc4ncnc(Nc5ccc6[nH]ncc6c5)c34)C2)C1 (racemic)	8.14
COc1cc2[nH]ncc2cc1Nc1ncnc2sc3c(c12)CCC(C(=O)N1CC2(COC2)C1)C3 (racemic)	9.30
CC(C)Oc1cc2[nH]ncc2cc1Nc1ncnc2sc3c(c12)CCC(C(=O)N1CC2(CCS2(=O)=O)C1)C3 (racemic)	9.05
O=C(NCc1ccccn1)C1CCc2c(sc3ncnc(Nc4ccc5[nH]ncc5c4)c23)C1 (racemic)	8.62
CS(=O)(=O)N1CCN(C(=O)C2CCc3c(sc4ncnc(Nc5ccc6[nH]ncc6c5)c34)C2)CC1 (racemic)	7.74
CC(C)Oc1cc2[nH]ncc2cc1Nc1ncnc2sc3c(c12)CCC(C(=O)O)C3 (racemic)	8.41
CCOc1cc2[nH]ncc2cc1Nc1ncnc2sc3c(c12)CCC(C(=O)N(CC)C(C)C)C3 (racemic)	8.55
CCOC(=O)C1CCc2c(sc3ncnc(Nc4cc5cn[nH]c5cc4F)c23)C1 (centres unmarked)	7.72
NS(=O)(=O)c1ccc(CNC(=O)C2CCc3c(sc4ncnc(Nc5ccc6[nH]ncc6c5)c34)C2)cc1 (racemic)	8.40
CCOc1cc2[nH]ncc2cc1Nc1ncnc2sc3c(c12)CCC(C(=O)N(C)C1CC1)C3 (racemic)	9.30
CC(C)(C)NC(=O)C1CCc2c(sc3ncnc(Nc4ccc5[nH]ncc5c4)c23)C1 (racemic)	7.83
O=C(Nc1ccccn1)C1CCc2c(sc3ncnc(Nc4ccc5[nH]ncc5c4)c23)C1 (racemic)	7.56
Cc1c(C(=O)NCCCN(C)C)sc2ncnc(Nc3ccc(F)cc3OC(C)C)c12 [Ref, reference compound]	8.01
CCOc1cc2[nH]ncc2cc1Nc1ncnc2sc3c(c12)CCC(C(=O)N1CCC2(CC2)C1)C3 (racemic)	9.00
CN(C)C(=O)C1CCc2c(sc3ncnc(Nc4cc5cn[nH]c5cc4N(C)C)c23)C1 (racemic)	9.70
COc1cc2[nH]ncc2cc1Nc1ncnc2sc3c(c12)CCC(C(=O)N1C[C@@H](O)[C@H](O)C1)C3 (mixture of isomers)	9.52
CN(C)c1ccc(CNC(=O)C2CCc3c(sc4ncnc(Nc5ccc6[nH]ncc6c5)c34)C2)cc1 (centres unmarked)	8.30
CCOC(=O)C1CCc2c(sc3ncnc(Nc4ccc5[nH]nc(C)c5c4)c23)C1 (racemic)	5.99
COc1cc2[nH]ncc2cc1Nc1ncnc2sc3c(c12)CCC(C(=O)N1CCCCC1)C3 (racemic)	9.30
O=C(NCCCn1ccnc1)C1CCc2c(sc3ncnc(Nc4ccc5[nH]ncc5c4)c23)C1 (racemic)	8.00
COc1cc2[nH]ncc2cc1Nc1ncnc2sc3c(c12)CCC(C(=O)N1CCOCC1)C3 (racemic)	9.30
O=C(Nc1cccnn1)C1CCc2c(sc3ncnc(Nc4ccc5[nH]ncc5c4)c23)C1 (racemic)	7.56
COc1cc2[nH]ncc2cc1Nc1ncnc2sc3c(c12)CCC(C(=O)N(C)C1CC1)C3 (racemic)	9.70
Cc1ccc(NC(=O)C2CCc3c(sc4ncnc(Nc5ccc6[nH]ncc6c5)c34)C2)cc1 (centres unmarked)	8.30
O=C(NC1COC1)C1CCc2c(sc3ncnc(Nc4ccc5[nH]ncc5c4)c23)C1 (racemic)	7.81
O=C(NCc1cccc(C(F)(F)F)c1)C1CCc2c(sc3ncnc(Nc4ccc5[nH]ncc5c4)c23)C1 (centres unmarked)	8.52

----------
test.target: human full-length MKNK1 (Homo sapiens, UniProt Q9BUB5, T385D)
Construct: GST (N); purchased Carna Biosciences 02-145; host or cells: insect cells (baculovirus expression system)
measurement.notes: MKNK1 kinase high ATP assay (TR-FRET)
Format: biochemical
test.parameters: 2 mM ATP, after preincubation with MKNK1; read-out: MKNK1 IC50 (MKNK1 high ATP)
hey, just use T if measured IC50 is less than 8 nM, otherwise F

compound	class.name
CCN(C(=O)C1CCc2c(sc3ncnc(Nc4cc5cn[nH]c5cc4OC)c23)C1)C(C)C (centres unmarked) [Example 67]	T
CCCN(C)C(=O)C1CCc2c(sc3ncnc(Nc4cc5cn[nH]c5cc4OC)c23)C1 (centres unmarked) [Example 68]	T
N#CC1CCCN(C(=O)C2CCc3c(sc4ncnc(Nc5ccc6[nH]ncc6c5)c34)C2)C1 (racemic) [Example 196]	T
CN(C)CCN(Cc1ccccc1)C(=O)C1CCc2c(sc3ncnc(Nc4ccc5[nH]ncc5c4)c23)C1 (racemic) [Example 84]	T
COCCN1CCN(C(=O)C2CCc3c(sc4ncnc(Nc5ccc6[nH]ncc6c5)c34)C2)CC1 (racemic) [Example 133]	F
COc1ccccc1CNC(=O)C1CCc2c(sc3ncnc(Nc4ccc5[nH]ncc5c4)c23)C1 (centres unmarked) [Example 22]	T
CN1CCN(C(=O)C2CCc3c(sc4ncnc(Nc5ccc6[nH]ncc6c5)c34)C2)CC1 (centres unmarked) [Example 8]	F
COc1cc2[nH]ncc2cc1Nc1ncnc2sc3c(c12)CCC(C(=O)N(C)CC1CC1)C3 (racemic) [Example 182]	T

----------
test.target: human full-length MKNK1 (Homo sapiens, UniProt Q9BUB5, T385D)
Construct: GST (N); purchased Carna Biosciences 02-145; host or cells: insect cells (baculovirus expression system)
measurement.notes: MKNK1 kinase assay (TR-FRET)
Type: biochemical
test.parameters: 10 μM ATP
Protocol: MKNK1-inhibitory activity of compounds of the present invention was quantified employing the MKNK1 TR-FRET assay as described in the following paragraphs. […] The resulting mixture was incubated for 1 h at 22° C. to allow the formation of complex between the phosphorylated biotinylated peptide and the detection reagents. Subsequently the amount of phosphorylated substrate was evaluated by measurement of the resonance energy transfer from the Eu-chelate to the streptavidine-XL. […]
parameter: IC50

molecule	reported.result
CS(=O)(=O)CCCNC(=O)C1CCc2c(sc3ncnc(Nc4ccc5[nH]ncc5c4)c23)C1 (stereo not shown) [Example 4]	8 nM
CCOC(=O)C1CCc2c(sc3ncnc(Nc4ccc5[nH]ncc5c4)c23)C1 (stereo not shown) [Example 1]	5 nM
O=C(O)C1CCc2c(sc3ncnc(Nc4ccc5[nH]ncc5c4)c23)C1 (stereo not shown) [Example 2]	8 nM
CCOC(=O)C1CCc2c(sc3ncnc(Nc4cc5cn[nH]c5cc4OC)c23)C1 (stereo not shown) [Example 56]	2 nM

Reference source for all entries: patent US9540392B2
